# Tested on: T. terrestris GH61E polypeptide
# assayComment: Microcrystalline cellulose conversion assay I (Examples 8, 9) with T. terrestris GH61E polypeptide
# Assay type: biochemical, Thielavia terrestris
# testSettings: dioxy compound 0.3% w/w + T. terrestris GH61E polypeptide (10 mg/g) + endoglucanase II + beta-glucosidase (5 mg/g each); 96 hours, 60° C.
Property: conversion of microcrystalline cellulose; scope: individual molecules
Give the value; after it, write the unit.

>  <molecule>
Oc1ccccc1O [pyrocatechol]

>  <measurement>
7.9±0.1%

$$$$
>  <molecule>
Oc1cccc(O)c1O [pyrogallol]

>  <measurement>
9.5±0.1%

$$$$
>  <molecule>
O=C(OC[C@H]1O[C@@H](OC(=O)c2cc(O)c(O)c(OC(=O)c3cc(O)c(O)c(O)c3)c2)[C@H](OC(=O)c2cc(O)c(O)c(OC(=O)c3cc(O)c(O)c(O)c3)c2)[C@@H](OC(=O)c2cc(O)c(O)c(OC(=O)c3cc(O)c(O)c(O)c3)c2)[C@@H]1OC(=O)c1cc(O)c(O)c(OC(=O)c2cc(O)c(O)c(O)c2)c1)c1cc(O)c(O)c(OC(=O)c2cc(O)c(O)c(O)c2)c1 [tannic acid]

>  <measurement>
6.0±0.2%

$$$$
>  <molecule>
O=C(O)/C=C/c1ccc(O)c(O)c1 [caffeic acid]

>  <measurement>
7.0±0.1%

$$$$
>  <molecule>
O=C(O)c1cc(O)c(O)c(O)c1 [gallic acid]

>  <measurement>
7.9±0.1%

$$$$

Data request, read-out conversion of microcrystalline cellulose, for CCOC(=O)c1cc(O)c(O)c(O)c1 [ethyl gallate]
6.2±0.1%

Data request, read-out conversion of microcrystalline cellulose, for COc1cc(C=CC(=O)O)cc(OC)c1O [sinapinic acid, 3,5 dimethoxy-4-hydroxy cinnamic acid]
9.2±0.1%
